Assay: Liver S9 fraction stability, human
Assay type: in vitro ADME
Conditions: human liver S9, 1.0 mg/ml S9 protein, 2 μM, 37° C.
Below: a set of entries, each annotated with reported % remaining at 60 minutes.
measured.quantity: % remaining at 60 minutes (%)

[[record]]
compound = "C=C1CC[C@@]2(O)C3Cc4ccc(OCOC(=O)OCCCCCCCCCCCC)c5c4[C@@]2(CCN3CC2CC2)[C@H]1O5"
measured_quantity = "% remaining at 60 minutes"
assay_value = 3.5

[[record]]
compound = "CCCCCCCCCCCC(=O)OCN1C(=O)CCc2ccc(OCCCCN3CCN(c4cccc(Cl)c4Cl)CC3)cc21 [Aripiprazole Lauroxil, reference compound]"
measured_quantity = "% remaining at 60 minutes"
assay_value = 47.8

[[record]]
compound = "C=C1CC[C@@]2(O)C3Cc4ccc(OC(=O)OCCCCCCCCCCCC)c5c4[C@@]2(CCN3CC2CC2)[C@H]1O5"
measured_quantity = "% remaining at 60 minutes"
assay_value = 5.3

[[record]]
compound = "CCCCCCCCCCCCCCCC(=O)OC1CCCn2c1nc(C)c(CCN1CCC(c3noc4cc(F)ccc34)CC1)c2=O (centres unmarked) [Paliperidone palmitate, reference compound]"
measured_quantity = "% remaining at 60 minutes"
assay_value = 47.8

[[record]]
compound = "C=C1CC[C@@]2(O)C3Cc4ccc(OC(=O)CCCCCCC/C=C/CCCCCCCC)c5c4[C@@]2(CCN3CC2CC2)[C@H]1O5"
measured_quantity = "% remaining at 60 minutes"
assay_value = 59.8

